# ASSAY_SUMMARY: physchem
# CONDITION_PARAMETERS: water, thermodynamic from solid
MEASURED_ATTRIBUTE: solubility at 24 h (µg/mL)
Give bare numbers, in µg/mL.

Data request: For the molecule shown here, O=C1CC2(CCCC2)CC(=O)N1CCCCN1CCN(c2ncccn2)CC1 , give the reported solubility at 24 h.
Data returned: 380

====

# ASSAY_SUMMARY: physchem
# CONDITION_PARAMETERS: aqueous with cosolvent or surfactant or cyclodextrin, thermodynamic from solid
MEASURED_ATTRIBUTE: solubility at 24 h (mg/mL)
Numbers only, in mg/mL.

Data request: For the compound shown here, O=C1CC2(CCCC2)CC(=O)N1CCCCN1CCN(c2ncccn2)CC1 , give the reported solubility at 24 h.
Data returned: 44
